# Tested on: human umbilical vein endothelial cells (HUVECs) in co-culture with normal human dermal fibroblasts (NHDF)
# experimental_details: in vitro angiogenesis assay, HUVEC-NHDF co-culture, CD31 immunostaining
# Assay type: cell-based
# experimental_context: 1 mM; medium control 10.2, DMSO 8.4
Structures can show the parent of a compound that is named as a salt.
Area % (percent of the area covered by HUVEC as observed by CD31 staining) reference
measure: Area % (percent of the area covered by HUVEC as observed by CD31 staining) (%)

[
  {
    "compound": "C[N+]1=C2SCCN2C[C@@H]1c1ccccc1 [Compound 7b, N-methyllevamisole trifluoroacetate]",
    "val": 3.3
  },
  {
    "compound": "Cc1ccc(C(=O)Nc2ccc(S(=O)(=O)O)c3cc(S(=O)(=O)O)cc(S(=O)(=O)O)c23)cc1NC(=O)c1cccc(NC(=O)Nc2cccc(C(=O)Nc3cc(C(=O)Nc4ccc(S(=O)(=O)O)c5cc(S(=O)(=O)O)cc(S(=O)(=O)O)c45)ccc3C)c2)c1 [Compound 5, suramin, reference compound]",
    "val": 2.2
  },
  {
    "compound": "c1ccc(C2CN3CCSC3=N2)cc1 (racemic) [Compound 2, (±)-levamisole, reference compound]",
    "val": 8.0
  },
  {
    "compound": "C[N+]1=C2SCCN2C[C@@H]1c1ccccc1 [Compound 7a, N-methyllevamisole triflate]",
    "val": 2.8
  },
  {
    "compound": "c1ccc([C@H]2CN3CCSC3=N2)cc1 [Compound 1, (S)-levamisole hydrochloride, reference compound]",
    "val": 7.5
  },
  {
    "compound": "Brc1ccc([C@H]2CN3CCSC3=N2)cc1 [Compound 3, (–)-p-bromolevamisole oxalate, reference compound]",
    "val": 3.4
  },
  {
    "compound": "Nc1ccc(-c2cn3c(n2)SCC3)cc1 [Compound 4, reference compound]",
    "val": 2.0
  }
]
